Values from paper PMC9315260

- System: HepG2 (human hepatocellular liver carcinoma cell line)
- TEST_DESCRIPTION: MTT in vitro cytotoxicity assay, HepG2
- Assay type: cell-based
- ASSAY_SETUP: HepG2, at 100 µM, read-out: Cell growth inhibition (%) HepG2
# inhibition at 100 µM per entry
A number alone suffices; assume %.

INPUT_SMILES | inhibition at 100 µM [%]
O=C(Nc1ccnc(Cl)c1)c1ccccc1Nc1cccc(C(F)(F)F)c1 | 87.2
O=C(Nc1ccccn1)c1ccccc1Nc1cccc(C(F)(F)F)c1 | 75
O=C(Nc1ccc(C(F)(F)F)cc1)c1ccccc1Nc1cccc(C(F)(F)F)c1 | 88.5
CC(C)c1ccc(NC(=O)c2ccccc2Nc2cccc(C(F)(F)F)c2)cc1 | 42.7

# evaluate next
// query Please look at O=C(Nc1ccc(Cl)nc1)c1cccnc1Nc1cccc(C(F)(F)F)c1 and tell me its recorded inhibition at 100 µM on HepG2 (human hepatocellular liver carcinoma cell line).
// result 85.7

====

- TEST_DESCRIPTION: MTT in vitro cytotoxicity assay, MARC145
- Type: cell-based, African green monkey
- ASSAY_SETUP: African green monkey, MARC145 cells (kidney cell line, subclone of MA-104), Table 3; MTT; mean ± S.D.
# pIC50 per entry
Scale note: pIC50 = -log10(concentration in M).

INPUT_SMILES | pIC50
O=C(Nc1cccc(C(F)(F)F)c1)c1cccnc1Nc1cccc(C(F)(F)F)c1 | 5.01

# evaluate next
// query Read off the recorded pIC50 for O=C(Nc1cccc(C(F)(F)F)c1)c1ccccc1Nc1cccc(C(F)(F)F)c1
// result 5.02

====

# pIC50 per entry
- System: HepG2 (human hepatocellular liver carcinoma cell line)
- TEST_DESCRIPTION: MTT in vitro cytotoxicity assay, HepG2
- Type: cell-based
- ASSAY_SETUP: HepG2, Table 3, MTT, mean ± S.D.
pIC50: −log10 of the molar value.

Reference set (3 entries):
COMPOUND | RESULT
O=C(Nc1ccccc1C(F)(F)F)c1cccnc1Nc1cccc(C(F)(F)F)c1 [C4] | < 4.03
CC(C)c1ccc(NC(=O)c2ccccc2Nc2cccc(C(F)(F)F)c2)cc1 [C1] | < 4.00
CC(C)c1ccc(NC(=O)c2cccnc2Nc2cccc(C(F)(F)F)c2)cc1 [C2] | < 4.00

# evaluate next
// query Read off the recorded pIC50 for O=C(Nc1ccc(C(F)(F)F)cc1)c1cccnc1Nc1cccc(C(F)(F)F)c1 [C8]
// result < 4.03

====

- TEST_DESCRIPTION: MTT in vitro cytotoxicity assay, MARC145
- Assay type: cell-based, African green monkey
- ASSAY_SETUP: African green monkey, MARC145 cells (kidney cell line, subclone of MA-104), Table 1; MTT; mean ± S.D.
pIC50: −log10 of the molar value.
RESULT_TYPE: pIC50

Reference set (4 entries):
COMPOUND | RESULT_TYPE | RESULT
CNC(=O)c1cccc(C)c1NC(=O)c1ccccc1Nc1cccc(C(F)(F)F)c1 | pIC50 | < 4.03
CNC(=O)c1cc(F)cc(Br)c1NC(=O)c1ccccc1Nc1cccc(C(F)(F)F)c1 | pIC50 | < 4.11
CNC(=O)c1ccc(Cl)cc1NC(=O)c1ccccc1Nc1cccc(C(F)(F)F)c1 | pIC50 | < 4.05
NC(=O)c1ccc(Cl)cc1NC(=O)c1ccccc1Nc1cccc(C(F)(F)F)c1 | pIC50 | < 4.04

# evaluate next
// query Read off the recorded pIC50 for O=c1[nH]cc(F)c(=O)[nH]1 [5-FU, 5-Fluorouracil, reference compound]
// result 3.81
